Every entry's value here was drawn from patent US6706663B2.

system: ORYSAT (Rice, Tebonnet); assay: Flooded paddy, post-transplant rice tolerance; format: in vivo, Oryza sativa, (L.) Tebonnet; conditions: flooded paddy, post-transplant rice; rate 0.1250 kg/ha; rated 3-4 weeks after treatment; 0-9 rating scale
Test Readout: herbicidal rating, ORYSAT (rice tolerance)
The response must contain the number and no unit.

Here are 2 compounds together with their reported answers.
C=CC1COC(c2nsc3ccc(-n4c(=O)cc(C(F)(F)F)n(C)c4=O)cc23)O1 (stereo not shown) | 9.0
Cn1c(C(F)(F)F)cc(=O)n(-c2cc3c(-c4ccccn4)nsc3cc2F)c1=O | 9.0

For reference, reported herbicidal rating, ORYSAT (rice tolerance) for "CN(C(=O)c1nsc2ccc(-n3c(=O)cc(C(F)(F)F)n(C)c3=O)cc12)c1ccc(Cl)cc1" stands at 5.0

For reference, reported herbicidal rating, ORYSAT (rice tolerance) for "Cn1c(C(F)(F)F)cc(=O)n(-c2ccc3snc(-c4ccco4)c3c2)c1=O" stands at 2.5
